# System: normal human lung fibroblasts
# Protocol Text: Ribosomal profiling: translational efficiency in TGFβ-treated fibroblasts
# Assay type: cell-based
# Test Conditions: ENSG00000138675; TGFβ-treated fibroblasts
# Procedure: Ribosomal profiling allows for measurement of changes in transcription and translation on a genome-wide basis accompanying TGFβ-dependent transformation of fibroblasts to myofibroblasts. Ribosomal profiles of the TGFβ-treated fibroblasts from Example 1 (about 6×10^6 cells/10 cm plate) were prepared and analyzed for changes in translational efficiencies with respect to potential disease-associated cellular changes accompanying this TGFβ-induced transformation. […]
Observable: renormalizing the translational profile of FGF5

Molecule | Value Reported
Cc1cc(C2CCCCC2)n(O)c(=O)c1.NCCO [CPX, ciclopirox oloamine] | − (− = <0.9)
COC(=O)[C@H]1[C@@H](O)[C@@]2(O)c3c(OC)cc(O[C@@H]4O[C@@H]([C@H](O)CO)CO[C@H]4OC)cc3O[C@@]2(c2ccc(OC)cc2)[C@@H]1c1ccccc1 [Silvestrol] | − (− = <0.9)
CC(C=CC(=O)NO)=CC(C)C(=O)c1ccc(N(C)C)cc1 (centres unmarked) [TSA] | − (− = <0.9)

---

# System: normal human lung fibroblasts
# Protocol Text: Ribosomal profiling: translational efficiency in TGFβ-treated fibroblasts
# Format: cell-based
# Test Conditions: ENSG00000143850; TGFβ-treated fibroblasts
Observable: renormalizing the translational profile of PLEKHA6

These solved cases illustrate the format of a correct answer.
Compound | Tested On | Value Reported
CC(C=CC(=O)NO)=CC(C)C(=O)c1ccc(N(C)C)cc1 (centres unmarked) [TSA] | normal human lung fibroblasts | + (+ = 0.9 to 1.5)
COC(=O)[C@H]1[C@@H](O)[C@@]2(O)c3c(OC)cc(O[C@@H]4O[C@@H]([C@H](O)CO)CO[C@H]4OC)cc3O[C@@]2(c2ccc(OC)cc2)[C@@H]1c1ccccc1 [Silvestrol] | normal human lung fibroblasts | − (− = <0.9)
Cc1ccc(=O)n(-c2ccccc2)c1 [pirfenidone, 5-methyl-1-phenylpyridin-2-one] | normal human lung fibroblasts | − (− = <0.9)
Cc1cc(C2CCCCC2)n(O)c(=O)c1.NCCO [CPX, ciclopirox oloamine] | normal human lung fibroblasts | + (+ = 0.9 to 1.5)

Please examine the following record next.
Request: // returns reported renormalizing the translational profile of PLEKHA6 for input CC(C)n1nc(-c2cc3cc(O)ccc3[nH]2)c2c(N)ncnc21 [PP242]
Response: − (− = <0.9)

---

# System: normal human lung fibroblasts
# Protocol Text: Ribosomal profiling: translational efficiency in TGFβ-treated fibroblasts
# Format: cell-based
# Test Conditions: gene TMTC1 (ENSG00000133687); TGFβ-treated fibroblasts
Observable: effect in renormalizing the translational profile of the gene

Compound | Tested On | Value Reported
CC(C)n1nc(-c2cc3cc(O)ccc3[nH]2)c2c(N)ncnc21 [PP242] | normal human lung fibroblasts | − (− = <0.9)
Cc1ccc(=O)n(-c2ccccc2)c1 [pirfenidone, 5-methyl-1-phenylpyridin-2-one] | normal human lung fibroblasts | − (− = <0.9)
Cc1cc(C2CCCCC2)n(O)c(=O)c1.NCCO [CPX, ciclopirox oloamine] | normal human lung fibroblasts | − (− = <0.9)

---

# Test system: normal human lung fibroblasts
# Protocol Text: Ribosomal profiling: translational efficiency in TGFβ-treated fibroblasts
# Type: cell-based
# Test Conditions: ENSG00000176020; TGFβ-treated fibroblasts
Observable: renormalizing the translational profile of AMIGO3

Observe how each entry below is paired with its result.
Compound | Value Reported
CC(C=CC(=O)NO)=CC(C)C(=O)c1ccc(N(C)C)cc1 (centres unmarked) | + (+ = 0.9 to 1.5)
CC(C)n1nc(-c2cc3cc(O)ccc3[nH]2)c2c(N)ncnc21 | − (− = <0.9)
COC(=O)[C@H]1[C@@H](O)[C@@]2(O)c3c(OC)cc(O[C@@H]4O[C@@H]([C@H](O)CO)CO[C@H]4OC)cc3O[C@@]2(c2ccc(OC)cc2)[C@@H]1c1ccccc1 | − (− = <0.9)
Cc1ccc(=O)n(-c2ccccc2)c1 | + (+ = 0.9 to 1.5)

Request: Which renormalizing the translational profile of AMIGO3 value is on record for Cc1cc(C2CCCCC2)n(O)c(=O)c1.NCCO ?
Response: − (− = <0.9)

Values compiled from patent US9993494B2.
